The reported numbers originate from patent US12157717B2.

Test system: Pasteurella multocida PM 6267 (P 2225 (L386))
assay_name: MIC, broth-microdilution (CLSI), strain PM 6267
Type: cell-based
measurement_conditions: Pasteurella multocida P 2225 (L386), reference strain (mouse infection strain)
Each entry below lists one item and its recorded MIC PM 6267 value.

Please tell me: MIC PM 6267 of CNC(=O)C(NC(=O)c1ccc(C#Cc2ccc(CNCc3ccc(C)cc3)cc2)cc1)C(=O)NO (stereo not drawn) , system Pasteurella multocida PM 6267 (P 2225 (L386))? ≤0.1 µM

Also, CNC(=O)C(NC(=O)c1ccc(C#Cc2ccc(CNC3CCCC3)cc2)cc1)C(=O)NO (stereo not drawn) please. 0.4 µM

Continue with CNC(=O)C(NC(=O)c1ccc(C#Cc2ccc(CNCc3ccccn3)cc2)cc1)C(=O)NO (stereo not drawn) ≤0.1 µM

Could you do the same for CNC(=O)C(NC(=O)c1ccc(C#Cc2ccc(CNCc3nccs3)cc2)cc1)C(=O)NO (stereo not drawn) , please? ≤0.1 µM

Try CNC(=O)C(C(=O)NO)N(C)C(=O)c1ccc(C#Cc2ccc(CNCc3ccccn3)cc2)cc1 (stereo not drawn) next. ≤0.1 µM

---

Test system: Mannheimia haemolytica MH 6357 (M7/2)
assay_name: MIC, broth-microdilution (CLSI), strain MH 6357
Assay type: cell-based
measurement_conditions: Mannheimia haemolytica M7/2, reference strain (cattle infection strain)
measured_endpoint: MIC MH 6357 (µM)
Dear colleague, please return just the value in µM, with no unit written.

{"molecule": "CNC(=O)C(C(=O)NO)N(C)C(=O)c1ccc(C#Cc2ccc(CNCc3ccc(OC)cc3)cc2)cc1 (centres unmarked) [Compound 24]", "observed": 1.6}

For CNC(=O)C(NC(=O)c1ccc(C#Cc2ccc(CNCc3ccccn3)cc2)cc1)C(=O)NO (centres unmarked) [Compound 13] , what is its reported MIC MH 6357? 0.8

Now give it for CNC(=O)C(C(=O)NO)N(C)C(=O)c1ccc(C#Cc2ccc(CNCc3ccccc3)cc2)cc1 (centres unmarked) [Compound 23] too. 1.6

Request: CNC(=O)C(NC(=O)c1ccc(C#Cc2ccc(CNCc3ccccc3)cc2)cc1)C(=O)NO (centres unmarked) [Compound 5] 0.4

Repeat for the following molecule: C#CCNCc1ccc(C#Cc2ccc(C(=O)NC(C(=O)NC)C(=O)NO)cc2)cc1 (centres unmarked) [Compound 20] 0.2

---

Entries and their MIC PM 6267
System: Pasteurella multocida PM 6267 (P 2225 (L386))
assay_name: MIC, broth-microdilution (CLSI), strain PM 6267
Type: cell-based
measurement_conditions: Pasteurella multocida P 2225 (L386), reference strain (mouse infection strain)
Respond with the bare value in µM.

Field: example entries. Status: answers known.
{"compound": "CCCNCc1ccc(C#Cc2ccc(C(=O)NC(C(=O)NC)C(=O)NO)cc2)cc1 (stereo not shown) [Compound 10]", "scale_unit": "µM", "MIC PM 6267": 0.8}
{"compound": "CNC(=O)C(C(=O)NO)N(C)C(=O)c1ccc(C#Cc2ccc(CNC3CCCC3)cc2)cc1 (stereo not shown) [Compound 26]", "scale_unit": "µM", "MIC PM 6267": 0.8}

Let's switch to this compound now.
Quick one: MIC PM 6267 of CNC(=O)C(C(=O)NO)N(C)C(=O)c1ccc(C#Cc2ccc(CNCCOC)cc2)cc1 (stereo not shown) [Compound 21] ? 1.6
